- Organism: Rattus norvegicus
- ASSAY: DrugMatrix - Regimen: Daily Repeat
- Format: toxicity, organism-based, Sprague-Dawley
- Parameters: regimen Daily Repeat, gender Male, age 6-8 weeks
- DETAILS: in vivo, po, 0 mg/kg, 72 h, tissue Plasma, route oral GAVAGE, dose level Control, time 3 day, vehicle .5 % CMC
Field 'label' (enum: satisfied / not satisfied). Set to satisfied when ALKALINE PHOSPHATASE is strictly under 400 u/L; else not satisfied.

Worked examples follow.
* CN1CCC[C@@H]1CCO[C@](C)(c1ccccc1)c1ccc(Cl)cc1 | not satisfied
* O=c1[nH]cc(F)c(=O)[nH]1 | satisfied
* CCOC(=O)OC(C)OC1=C(C(=O)Nc2ccccn2)N(C)S(=O)(=O)c2ccccc21 (stereo unspecified) | not satisfied
* NCC(=O)O | satisfied

API: the following record is the query input.
Record COC(=O)c1ccc(O)cc1 : is its ALKALINE PHOSPHATASE strictly below 400 u/L?
satisfied
